- TEST_TARGET: MeCP2[MBD] (mouse (fragment sequence identical in …, UniProt Q9Z2D6 77-167))
- Sequence (Q9Z2D6 77-167): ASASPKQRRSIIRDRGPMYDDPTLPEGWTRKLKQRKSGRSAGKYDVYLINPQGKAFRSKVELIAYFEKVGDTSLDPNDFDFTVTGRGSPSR
- TEST_PROTOCOL: BLI; poly(dI-dC) 1 ug/ml; BLI: 150 mM NaCl, 10 mM HEPES pH 8.0, 0.05% Tween20, poly(dI-dC) 1 ug/ml; MBD2 EMSA: 20 mM HEPES pH 7.9, 150 mM KCl, 8% Ficoll, 1 mM EDTA, 0.5 mM DTT, poly(dI-dC) 40 ng/ul, RT; N-term EMSA: 10 mM Tris-HCl pH 7.5, 150 mM KCl, 5% glycerol, 0.1 mM EDTA, 0.1 mg/ml BSA, 1 ug poly(dA-dT), on ice; pull-down at 4 C
- EXPERIMENTAL_SETUP: protein: recombinant; tags: pET28 (NdeI/EcoRI), His tag (Ni-NTA purified; tag removal not mentioned); label: 5'-biotin on strand 1; 19 bp, 5' overhang 1 nt each end
Reported pKd values for the following binders.
Formally, pKd is defined as -log10 of the concentration c, with c in mol/L.

{"BINDER": "BLI mCAC probe (dsDNA, 5mC at CAC: C8 of strand 1 (underlining lost in text)) DNA 1: TCTGGAACACAATTCTTCTA DNA 2: ATAGAAGAATTGTGTTCCAG", "RESULT": 7.86}

Entry under review: BLI mCG probe (dsDNA, 5mC at CG: C8 of strand 1 and probably C13 of strand 2 (underlining lost in text)) DNA 1: TCTGGAACGGAATTCTTCTA DNA 2: ATAGAAGAATTCCGTTCCAG . Reported pKd?
7.65
